Where do the numbers come from? From ChEMBL document CHEMBL1201862.

Test system: HL-60
Assay: NCI tumour cell line growth inhibition, 48 h
Counter-ions that a name gives are not always drawn. Calls of active or inactive are those of the source. Rule as the data show it: active = GI50 up to about 1.1 µM and inactive = higher.
Outcome (select one): active, inactive

Ask: What classification did Cc1csc2nc(-c3cccc([N+](=O)[O-])c3)c(/C=N/N=C(N)N)n12 end up with in this test?
Result: inactive

Ask: Which outcome was assigned to c1ccc2cc3c(cc2c1)nc1ccccn13 in this test?
Result: inactive

Ask: Kindly provide the recorded test outcome for the following molecule: Cc1cccc2nc(-c3ccccc3)cc(=O)n12
Result: inactive

Ask: Each molecule tested received a call. Report the one for COc1cc2c(c(OC)c1OC)-c1ccc(SC)c(=O)cc1[C@@H](NCc1ccccc1[N+](=O)[O-])CC2 .
Result: active

Ask: For CN1c2ccccc2S(=O)(=O)n2c(COc3ccccc3)nnc21 , what call appears in the results of this test?
Result: inactive

---
Ask: Given CCCCc1ccc(Nc2nc3ncnc-3c[nH]2)cc1 , state the outcome it received in this test.
Result: inactive

Ask: Assay outcome for Clc1c2ncccc2cc2nn[nH]c12 : what was it?
Result: inactive

Ask: // param item: C=CC/C=C/Cc1csc(C(C)(C)C(O)C/C=C/C(=C)CCNC(=O)OC)n1 (configuration not stated) ; yields the recorded call
Result: inactive

Ask: Per the assay record, what outcome was assigned to CNc1ccc([N+](=O)[O-])cc1C(=O)N1CCC[C@H]1CO ?
Result: inactive

Ask: # outcome recorded in this test, key = Nc1ccn(CCNCCn2cnc3nc(N)[nH]c(=O)c32)c(=O)n1
Result: inactive

Ask: Answer briefly: the call reported for CCN(C)c1nc(N(C)CC)c2nc(N(C)CC)nc(N(C)CC)c2n1 in this assay.
Result: inactive

Ask: Outcome? O=c1c2ncn(C3CCCO3)c2n(-c2ccccc2)c(=S)n1-c1ccccc1 (configuration not stated)
Result: inactive

Ask: What is the recorded call for this molecule in the test? O=C1CC2[C@@H](N3CCCC3)CCC(N1Cc1ccccc1)C2(O)O (some centres not stated)
Result: inactive

Ask: What was the test verdict on CC[C@@]1(O)C(=O)OCc2c1cc1n(c2=O)Cc2cc3c(CN(C)C)c(O)ccc3nc2-1 [TOPOTECAN HYDROCHLORIDE] ?
Result: active

Ask: Field: outcome | Entry: COc1ccc(-c2sc(Br)c3c2C(=O)C2OC(=O)NC32)cc1OC (configuration not stated)
Result: inactive

Ask: Check the results log: what was the call for CCCCN(CCCC)C(=O)C(=O)C(C(=O)c1ccc(OC)cc1)c1ccc(OC)cc1 (configuration not stated) ?
Result: inactive

Ask: Assay result, entry COC(CN(C=O)[C@@H](c1ccc(Cl)cc1)c1cc2ccccc2o1)OC — outcome?
Result: inactive

Ask: Any idea what this test logged for Cc1cn(C2CC(O)C(Cn3nncc3Cn3cnc4c(N)ncnc43)O2)c(=O)[nH]c1=O (configuration not stated) ?
Result: inactive

Ask: Test call, this molecule: CC1CCC2(OC1)OC1CC3C4CCC5CC(O)CCC5(C)C4CC(=O)OC3(C)C1C2C (configuration not stated)
Result: inactive

Ask: Check the results log: what was the call for C(=N/NC1=NCCN1)/c1c2ccccc2c(/C=N\NC2=NCCN2)c2ccccc12 ?
Result: active

Ask: Tell me the assay call for CCC/C(Cl)=N/OC(=O)Nc1cc(C(F)(F)F)ccc1OC please.
Result: inactive

Ask: Per the records of this test, what outcome belongs to COC(=O)Nc1nc(=O)c2cc(OC)c(OC)cc2[nH]1 ?
Result: inactive

Ask: Field: outcome | Entry: COc1cccc(C2ON=C(c3ccccc3)N2C23CC4CC(CC(C4)C2)C3)c1 (configuration not stated)
Result: inactive

Ask: Record lookup: outcome of this test for COc1cccc(NC(=O)C(=O)C2C=CCS2(=O)=O)c1 (configuration not stated) ?
Result: inactive

Ask: Outcome? O=C(CCc1nnc(S)[nH]1)Nc1cc(Cl)c(Cl)cc1Cl
Result: inactive

Ask: Hi, sorry to bother you, what did the test record for Nn1c(CCCl)nc2c(Br)cc(Br)cc2c1=O ?
Result: inactive

Ask: What outcome does the record of this test show for c1ccc(-c2c3c(nc4c2CC[C@H]4NC2=NCCN2)[C@@H](NC2=NCCN2)CC3)cc1 ?
Result: inactive
